Measured target: RgNanH (Mediterraneibacter gnavus (Ruminococcus gnavus), UniProt A7B557)
Assay info: Inhibition of RgNanH activity against 4MU-Neu5Ac by neuraminidase inhibitors
Assay type: biochemical, Ruminococcus gnavus ATCC 29149
Condition details: RgNanH 1.00 nM, 4MU-Neu5Ac 0.51 mM, pre-incubated 15 min at 37 °C, pH 6.5; read-out: IC50
IC50 by entry:
The figure you give is taken to be in µM; do not add the unit.

CC(=O)N[C@H]1NC[C@H](C(=O)O)[C@H](O)[C@@H]1O; 4.87
CCC(CC)O[C@@H]1C=C(C(=O)O)C[C@H](N)[C@H]1NC(C)=O [Oseltamivir carboxylate]; 29.6

Next molecule, IC50 to be filled in.
Task: For `CC(=O)N[C@H]1[C@H]([C@H](O)[C@H](O)CO)OC(C(=O)O)=C[C@@H]1N=C(N)N` , what is its reported IC50?
Result: 11900

----------
Measured target: RgNanH (Mediterraneibacter gnavus (Ruminococcus gnavus))
Assay info: Inhibition of RgNanH activity against 4MU-Neu5Ac by neuraminidase inhibitors
Format: biochemical, Ruminococcus gnavus ATCC 29149
Condition details: IC50, RgNanH 1.00 nM, 4MU-Neu5Ac 0.51 mM, pre-incubated 15 min at 37 °C, pH 6.5
Measurement type: IC50

Task: For `CC(=O)N[C@H]1[C@H]([C@H](O)[C@H](O)CO)OC(C(=O)O)=C[C@@H]1N=C(N)N` , what is its reported IC50?
Result: ~12 mM

----------
Measured target: RgNanH (Mediterraneibacter gnavus (Ruminococcus gnavus), UniProt A7B557)
Sequence (A7B557 26-723): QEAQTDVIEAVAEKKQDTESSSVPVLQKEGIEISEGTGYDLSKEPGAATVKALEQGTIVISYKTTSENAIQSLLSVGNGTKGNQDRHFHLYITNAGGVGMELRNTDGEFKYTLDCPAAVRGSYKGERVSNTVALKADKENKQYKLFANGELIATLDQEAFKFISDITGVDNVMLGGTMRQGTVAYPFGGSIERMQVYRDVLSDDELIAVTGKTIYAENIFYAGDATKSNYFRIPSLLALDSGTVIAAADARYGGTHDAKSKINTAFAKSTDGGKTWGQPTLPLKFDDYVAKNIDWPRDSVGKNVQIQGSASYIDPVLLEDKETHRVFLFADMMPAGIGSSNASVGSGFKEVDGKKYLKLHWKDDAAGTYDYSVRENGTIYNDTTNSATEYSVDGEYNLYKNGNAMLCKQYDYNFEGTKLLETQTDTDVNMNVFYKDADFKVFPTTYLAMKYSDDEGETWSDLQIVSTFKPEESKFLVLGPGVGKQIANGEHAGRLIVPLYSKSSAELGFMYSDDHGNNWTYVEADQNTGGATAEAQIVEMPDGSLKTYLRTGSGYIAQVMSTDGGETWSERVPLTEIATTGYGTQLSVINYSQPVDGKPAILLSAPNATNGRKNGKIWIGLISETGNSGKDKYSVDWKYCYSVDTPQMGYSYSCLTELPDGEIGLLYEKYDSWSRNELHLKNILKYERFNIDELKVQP
Assay info: Inhibition of RgNanH activity against 4MU-Neu5Ac by neuraminidase inhibitors
Type: biochemical, Ruminococcus gnavus ATCC 29149
Condition details: RgNanH 1.00 nM, 4MU-Neu5Ac 0.51 mM, pre-incubated 15 min at 37 °C, pH 6.5
LogIC50 by entry:
Give the figure by itself; no unit, no explanation.

CC(=O)N[C@H]1NC[C@H](C(=O)O)[C@H](O)[C@@H]1O; −2.31
CC(=O)N[C@H]1[C@H]([C@H](O)[C@H](O)CO)OC(C(=O)O)=C[C@@H]1O; 0.15
CC(=O)N[C@H]1[C@H]([C@H](O)[C@H](O)CO)OC(C(=O)O)=C[C@@H]1N=C(N)N; 1.08

Task: For CCC(CC)O[C@@H]1C=C(C(=O)O)C[C@H](N)[C@H]1NC(C)=O [Oseltamivir carboxylate] , what is its reported LogIC50?
Result: −1.53
